Every entry's value here was drawn from patent US7067517B2.

- Measured Target: Hormone-sensitive lipase (HSL) (Homo sapiens)
- Type: biochemical
- Condition Parameters: SPA on-bead assay; % Eff (% Inhibition)
Decide using Test 2898.2 HSL2 % Inhibition All alone. Strictly below 80%: fulfilled. Equal to or above 80%: not fulfilled.

CC(C)C(Cl)=NOC(=O)NCC(O)c1ccccc1 (centres unmarked) ... fulfilled
CSc1nc(-c2ccc(Cl)cc2)nn1C(=O)N(C)C ... fulfilled

Is Test 2898.2 HSL2 % Inhibition All strictly under 80% for the entry CC(C)C(Cl)=NOC(=O)NCc1ccc(F)cc1 ?
not fulfilled

Is Test 2898.2 HSL2 % Inhibition All strictly under 80% for the entry CN(C)C(=O)On1nnc2ccccc21 ?
not fulfilled

Is Test 2898.2 HSL2 % Inhibition All strictly under 80% for the entry Cc1ccc(CSc2nnc(OC(=O)N(C)C)n2-c2cccc(Cl)c2)cc1 ?
fulfilled

----------
Kindly state activity at 10 µM for each of the entries shown.
- Measured Target: Hormone-sensitive lipase (HSL) (Homo sapiens)
- Measurement Description: biochemical
- Condition Parameters: read-out: Test 3190.1 HSL_FL % ACTIVITY All
Answers are plain numbers, in %.

// solved cases for activity at 10 µM follow
CN(C(=O)On1ccnn1)c1ccccc1 ... 25
CN(C(=O)Oc1ccc(OC(C)(C)C)cc1)c1ccccc1 ... 17
COc1ccc(OC)c(-c2c(C)c3ccc(OC(=O)N(C)c4ccccc4)cc3oc2=O)c1 ... 15
CN(C(=O)Oc1ccc(-c2ccc(Br)cc2)cc1)c1ccccc1 ... 30
COc1ccc(-c2c(C)c3ccc(OC(=O)N(C)c4ccccc4)cc3oc2=O)cc1 ... 43

Here are 2 molecules. What values of activity at 10 µM were reported for them?
1. CN(C(=O)Oc1ccc(Oc2ccc(C(F)(F)F)cn2)cc1)C1CCCCC1
2. Cc1c(-c2ccccc2)c(=O)oc2cc(OC(=O)N(C)c3ccccc3)ccc12

1: 16; 2: 42

----------
Kindly state Test 2848.2 HSL % Inhibition All for each of the entries shown.
- Measured Target: Hormone-sensitive lipase (HSL) (Homo sapiens, UniProt Q05469)
- Sequence (Q05469 whole entry, species assumed): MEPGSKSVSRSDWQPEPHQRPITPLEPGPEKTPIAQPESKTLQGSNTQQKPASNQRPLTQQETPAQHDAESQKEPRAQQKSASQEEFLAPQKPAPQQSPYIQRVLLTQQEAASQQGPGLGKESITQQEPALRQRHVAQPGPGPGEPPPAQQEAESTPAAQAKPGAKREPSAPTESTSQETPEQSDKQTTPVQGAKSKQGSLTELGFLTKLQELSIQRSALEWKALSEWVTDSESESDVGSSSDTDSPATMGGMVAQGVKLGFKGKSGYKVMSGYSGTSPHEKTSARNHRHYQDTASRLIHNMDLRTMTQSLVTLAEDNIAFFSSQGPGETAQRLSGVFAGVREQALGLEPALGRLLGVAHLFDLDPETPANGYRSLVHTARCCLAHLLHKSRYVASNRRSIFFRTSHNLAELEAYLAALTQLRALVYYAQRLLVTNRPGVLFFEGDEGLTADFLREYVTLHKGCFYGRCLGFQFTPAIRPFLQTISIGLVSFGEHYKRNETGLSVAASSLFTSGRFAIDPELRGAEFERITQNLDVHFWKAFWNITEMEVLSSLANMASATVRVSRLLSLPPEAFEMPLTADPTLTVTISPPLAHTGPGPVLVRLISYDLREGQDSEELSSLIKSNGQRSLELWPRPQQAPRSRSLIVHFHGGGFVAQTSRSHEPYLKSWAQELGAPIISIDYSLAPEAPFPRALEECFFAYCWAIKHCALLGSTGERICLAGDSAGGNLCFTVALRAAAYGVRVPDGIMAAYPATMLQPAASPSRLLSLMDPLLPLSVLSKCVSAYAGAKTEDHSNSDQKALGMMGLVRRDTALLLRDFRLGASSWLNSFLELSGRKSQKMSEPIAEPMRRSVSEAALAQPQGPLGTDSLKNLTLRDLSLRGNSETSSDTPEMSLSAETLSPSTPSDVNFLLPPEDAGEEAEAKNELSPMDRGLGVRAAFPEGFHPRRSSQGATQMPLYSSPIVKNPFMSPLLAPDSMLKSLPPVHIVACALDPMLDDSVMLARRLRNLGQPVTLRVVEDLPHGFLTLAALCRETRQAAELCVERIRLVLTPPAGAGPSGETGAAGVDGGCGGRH
- Measurement Description: Test 2848.2: high-volume screening assay, para-nitrophenyl butyrate (p-NPB) substrate
- Format: biochemical
- Condition Parameters: UV-abs 405 nm, 20 min room temp, % Eff (% Inhibition)
For clarity, give the value followed by its unit.

// solved cases for Test 2848.2 HSL % Inhibition All follow
CCCCCCC(C=Cc1ccc(Cl)cc1)=NOC(=O)NC1CCCCC1 ... 23.8%
O=C(Nc1ccccc1)n1ncc(S(=O)(=O)c2ccc(Cl)cc2)c1-c1ccc(Cl)cc1 ... 33.8%

Here are 2 compounds. What values of Test 2848.2 HSL % Inhibition All were reported for them?
1. Cc1ccc(NC(C=O)=NOC(=O)NC2CCCCC2)cc1
2. CC(C)Sc1nnc(OC(=O)N(C)C)n1-c1cccc(C(F)(F)F)c1

19.8%
30.1%

Query: Test 2848.2 HSL % Inhibition All; subject: CN(C)C(=O)Oc1c(-c2ccccc2)cn(Cc2ccccc2)c(=O)c1-c1ccccc1
21.6%

----------
Structures can show the parent of a compound that is named as a salt.
Property Label: melting point

COc1cccc(N2CCN(C(=O)Oc3ccc(Oc4ccc(C(F)(F)F)cc4)cc3)CC2)c1 (as salt: hydrochloride) ... 168 to 171 °C
O=C(Oc1ccc(Oc2ccc(C(F)(F)F)cn2)cc1)N1CCN(CCO)CC1 (as salt: hydrochloride) ... 255 °C
O=C(Oc1ccc(Oc2ccc(C(F)(F)F)cc2)cc1)N1CCN(C2CCCCC2)CC1 (as salt: hydrochloride) ... 290 to 291 °C
Cc1ccc(CN2CCN(C(=O)Oc3ccc(Oc4ccc(C(F)(F)F)cc4)cc3)CC2)cc1 (as salt: hydrochloride) ... 250 to 252 °C
Cc1c(Cc2ccc(F)cc2)c(=O)oc2cc(OC(=O)N(C)c3ccccc3)ccc12 ... 185 to 186 °C

Here are 7 molecules. What values of melting point were reported for them?
1. O=C(CN1CCN(C(=O)Oc2ccc(Oc3ccc(C(F)(F)F)cn3)cc2)CC1)N1CCCC1 (as salt: hydrochloride)
2. O=C(Oc1ccc(Oc2ccc(C(F)(F)F)cn2)cc1)N1CCCN(Cc2ccc(-c3ccccc3)cc2)CC1
3. O=C(Oc1ccc(Oc2ccc(C(F)(F)F)cn2)cc1)N1CCN(Cc2ccccn2)CC1 (as salt: hydrochloride)
4. O=C(Oc1ccc(Oc2ccc(C(F)(F)F)cn2)cc1)N1CCN(Cc2c(F)cccc2Cl)CC1 (as salt: hydrochloride)
5. O=C(Oc1ccc(Oc2ccc(C(F)(F)F)cn2)cc1)N1CCN(CCc2ccncc2)CC1 (as salt: hydrochloride)
6. O=C(Oc1ccc(Oc2ccc(C(F)(F)F)cn2)cc1)N1CCN(c2ccc3c(c2)OCO3)CC1
7. CC(C)(C)Oc1ccc(OC(=O)N2CCOCC2)cc1 [Example 87]

1: 224 °C; 2: 143 °C; 3: 189 to 190 °C; 4: 204 to 205 °C; 5: 268 to 271 °C (dec.); 6: 146 to 147 °C; 7: 128.8 to 129.5 °C

Here are 4 molecules. What values of melting point were reported for them?
1. COc1ccc(N2CCN(C(=O)Oc3ccc(Oc4ccc(C(F)(F)F)cn4)cc3)CC2)c(OC)c1
2. O=C(Oc1ccc(Oc2ccc(C(F)(F)F)cn2)cc1)N1CCN(Cc2ccc(F)cc2)CC1 (as salt: hydrochloride)
3. O=C(Oc1ccc(Oc2ccc(C(F)(F)F)cn2)cc1)N1CC2CC1CN2Cc1ccccc1 (centres unmarked)
4. O=C(Oc1ccc(Oc2ccc(C(F)(F)F)cc2)cc1)N1CCN(CCOCCO)CC1 (as salt: hydrochloride)

["98 to 99 °C", "240 to 243 °C", "114 to 115 °C", "176 to 178 °C"]

Here are 7 molecules. What values of melting point were reported for them?
1. CCCCN1CCN(C(=O)Oc2ccc(Oc3ccc(C(F)(F)F)cn3)cc2)CC1 (as salt: hydrochloride)
2. O=C(Oc1ccc(Oc2ccc(C(F)(F)F)cn2)cc1)N1CCN(c2ncccn2)CC1
3. O=C(Oc1ccc(Oc2ncc(C(F)(F)F)cc2Cl)cc1)N1CCN(Cc2ccccc2)CC1 (as salt: hydrochloride)
4. CN(C(=O)On1ccnn1)c1ccccc1 [Example 144]
5. O=C(Oc1ccc(Oc2ccc(C(F)(F)F)cn2)cc1)N1CCN(c2ncccc2C(F)(F)F)CC1
6. O=C(Oc1ccc(Oc2ccc(C(F)(F)F)cn2)cc1)N1CCN(Cc2ccccc2)CC1 (as salt: hydrochloride)
7. CC(C)(C)c1ccc(CN2CCN(C(=O)Oc3ccc(Oc4ccc(C(F)(F)F)cn4)cc3)CC2)cc1 (as salt: hydrochloride)

["221 to 222 °C", "120 to 121 °C", "111 to 113 °C", "105 to 106 °C", "131 to 132 °C", "229 to 231 °C", "274 to 275 °C"]

Here are 4 molecules. What values of melting point were reported for them?
1. Cc1cc(C)nc(Sc2ccc(OC(=O)N3CCN(Cc4cccc(F)c4)CC3)cc2)n1
2. O=C(Oc1ccc(Oc2ccc(C(F)(F)F)cn2)cc1)N1CCN(c2ccccc2)CC1
3. COc1ccc(CN2CCN(C(=O)Oc3ccc(Oc4ccc(C(F)(F)F)cn4)cc3)CC2)cc1 (as salt: hydrochloride)
4. O=C(Oc1ccc(Oc2ccc(C(F)(F)F)cn2)cc1)N1CCN(Cc2cccc(F)c2)CC1 (as salt: hydrochloride)

117 to 118 °C
117 °C
237 to 238 °C
138 to 139 °C

Here are 5 molecules. What values of melting point were reported for them?
1. O=C(Oc1ccc(Oc2ccc(C(F)(F)F)cn2)cc1)N1CCN(Cc2ccc3c(c2)OCO3)CC1 (as salt: hydrochloride)
2. O=C(Oc1ccc(Oc2ccc(C(F)(F)F)cn2)cc1)N1CCN(c2ccccn2)CC1 (as salt: hydrochloride)
3. O=C(Oc1ccc(Oc2ccc(C(F)(F)F)cn2)cc1)N1CCN(c2ccc(F)cc2)CC1 (as salt: hydrochloride)
4. O=C(Oc1ccc(Oc2ccc(C(F)(F)F)cn2)cc1)N1CCN(c2ccc(Cl)c(Cl)c2)CC1
5. CN(C(=O)On1cccn1)c1ccccc1

["239 to 240 °C", "247 to 248 °C", "131 to 132 °C", "115 to 116 °C", "63 to 67 °C"]

----------
Where a name gives a salt, the structure may show the parent alone.
Kindly state melting point for each of the entries shown.

Here are 4 compounds. What values of melting point were reported for them?
1. COc1cccc(CN2CCN(C(=O)Oc3ccc(Oc4ccc(C(F)(F)F)cn4)cc3)CC2)c1 (as salt: hydrochloride)
2. O=C(Oc1ccc(Oc2ccc(C(F)(F)F)cn2)cc1)N1CCN(c2cnccn2)CC1
3. O=C(Oc1ccc(Oc2ccc(C(F)(F)F)cn2)cc1)N1CCN(C2CCCC2)CC1 (as salt: hydrochloride)
4. O=C(Oc1ccc(Oc2ccc(C(F)(F)F)cn2)cc1)N1CCN(CCc2cccs2)CC1 (as salt: hydrochloride)

1. 214 to 215 °C
2. 160 to 161 °C
3. 294 to 295 °C
4. 236 to 237 °C
